system: SJSA-1; assay: Cell proliferation (Alamar Blue) assay, SJSA-1 osteosarcoma, with/without ferrostatin; assay type: cell-based, human; conditions: Homo sapiens, SJSA-1, Cell Line SJSA-1; read-out: IC50
IC50 for assorted molecules
The answer consists of two parts: a number and, after it, its unit.

Reference set (2 entries):
molecule | measured.target | IC50
COC[C@H]1Cc2c([nH]c3ccccc23)[C@H](c2ccc(N3CCOCC3)cc2)N1C(=O)CCl [Compound 232] | SJSA-1 | 45 nM
C[C@H]1Cc2c([nH]c3ccccc23)[C@H](C23CC(F)(C2)C3)N1C(=O)CCl [Compound 226] | SJSA-1 | 1160 nM

input: Given the entry C#CC(=O)N1[C@@H](c2ccc(Br)cc2)c2[nH]c3ccccc3c2C[C@@H]1C [Compound 195] , report its measured IC50.
output: 256 nM

input: Here is the next molecule: C#CC(=O)N1[C@@H](CCCCCC)Cc2c([nH]c3ccccc23)[C@@H]1c1ccc(F)cc1 [Compound 176]
output: 206 nM
